Form field: IC50 (one value per entry).
# Tested On: Cdc7/ASK (Homo sapiens, UniProt O00311)
# Sequence (O00311 whole entry): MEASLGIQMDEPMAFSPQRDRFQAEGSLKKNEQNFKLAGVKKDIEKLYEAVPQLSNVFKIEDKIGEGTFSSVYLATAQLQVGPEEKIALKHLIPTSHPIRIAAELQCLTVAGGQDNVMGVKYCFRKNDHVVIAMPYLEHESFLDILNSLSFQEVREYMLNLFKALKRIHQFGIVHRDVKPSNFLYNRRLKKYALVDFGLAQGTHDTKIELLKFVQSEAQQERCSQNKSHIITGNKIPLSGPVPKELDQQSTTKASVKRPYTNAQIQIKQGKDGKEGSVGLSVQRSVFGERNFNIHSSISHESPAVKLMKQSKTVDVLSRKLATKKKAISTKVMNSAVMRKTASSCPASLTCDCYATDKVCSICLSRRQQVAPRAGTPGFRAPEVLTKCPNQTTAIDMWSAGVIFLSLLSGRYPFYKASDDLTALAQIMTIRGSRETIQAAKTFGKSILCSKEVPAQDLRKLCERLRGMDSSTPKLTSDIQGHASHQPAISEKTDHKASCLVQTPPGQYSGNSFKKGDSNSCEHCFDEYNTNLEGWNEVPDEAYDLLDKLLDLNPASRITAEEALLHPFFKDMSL
# Sequence (Q9UBU7 whole entry partner): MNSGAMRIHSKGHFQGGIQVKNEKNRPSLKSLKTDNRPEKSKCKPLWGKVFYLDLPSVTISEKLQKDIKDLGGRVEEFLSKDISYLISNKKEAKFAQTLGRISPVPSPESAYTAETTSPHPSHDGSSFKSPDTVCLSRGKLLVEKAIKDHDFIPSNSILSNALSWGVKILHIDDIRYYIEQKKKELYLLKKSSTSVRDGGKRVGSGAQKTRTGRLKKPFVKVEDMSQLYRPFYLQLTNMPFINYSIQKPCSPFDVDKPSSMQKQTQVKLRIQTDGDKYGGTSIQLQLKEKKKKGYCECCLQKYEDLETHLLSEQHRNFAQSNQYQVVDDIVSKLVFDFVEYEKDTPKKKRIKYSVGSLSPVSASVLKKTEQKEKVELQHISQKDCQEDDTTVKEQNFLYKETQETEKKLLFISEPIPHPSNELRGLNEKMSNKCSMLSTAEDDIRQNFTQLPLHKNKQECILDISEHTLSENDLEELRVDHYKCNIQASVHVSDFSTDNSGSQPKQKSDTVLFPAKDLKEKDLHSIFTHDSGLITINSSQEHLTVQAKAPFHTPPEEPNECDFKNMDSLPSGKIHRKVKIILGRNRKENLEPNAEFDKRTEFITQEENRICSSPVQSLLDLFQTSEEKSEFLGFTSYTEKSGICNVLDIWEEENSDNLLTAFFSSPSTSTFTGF
# Protocol Description: Cdc7 Biochemical Assay Method 1: 384 well ELISA, whole protein substrate MCM2, antibody against Phospho MCM2 (S53)
# Set-up: purchased
# Details: 2 μM ATP, read-out: Biochemical Method 1 (pIC50) (converted)
Measured Quantity: IC50 (nM)

>  <Compound>
O=C(C1CC1(F)F)N1CCC(c2nc(-c3ccncc3)[nH]c(=O)c2Cl)CC1 (stereo not shown)

>  <Unit Label>
nM

>  <Data Value>
15.8

$$$$
>  <Compound>
O=c1[nH]c(-c2ccncc2)nc(N2CCN(CC(F)(F)F)CC2)c1Cl

>  <Unit Label>
nM

>  <Data Value>
7.24

$$$$
>  <Compound>
CCCN1CCCN(c2nc(-c3ccncc3)[nH]c(=O)c2Cl)CC1

>  <Unit Label>
nM

>  <Data Value>
21.4

$$$$
>  <Compound>
O=c1[nH]c(-c2ccncc2)nc(N2CCNC(c3ccc(Cl)cc3)C2)c1Cl (stereo not shown)

>  <Unit Label>
nM

>  <Data Value>
9.33

$$$$
>  <Compound>
C[C@@H]1CN(c2nc(-c3ccncc3)[nH]c(=O)c2Cl)[C@H](C)CN1

>  <Unit Label>
nM

>  <Data Value>
35.5

$$$$
>  <Compound>
CCCC1COCCN1c1nc(-c2ccncc2)[nH]c(=O)c1Cl (stereo not shown)

>  <Unit Label>
nM

>  <Data Value>
67.6

$$$$
>  <Compound>
O=c1[nH]c(-c2ccncc2)nc(N2CCCC(F)C2)c1Cl (stereo not shown)

>  <Unit Label>
nM

>  <Data Value>
8.13

$$$$
